Entries and their measured pIC50 follow.
Biological target: human recombinant PDE5 (Homo sapiens)
Assay: Inhibitory effect on cGMP-PDE (one-step assay, 8-[H3]-cGMP)
Conditions: in vitro
pIC50 field: float, defined as -log10 of concentration (mol/L).

Recorded results for 8 molecules are shown here.
molecule: CCOC(=O)c1cc(CN)n2c1Cc1c([nH]c3ccccc13)C2c1ccc2c(c1)CCO2 (stereo not shown)
tested-target: human recombinant PDE5 (Homo sapiens)
reported-value: 7.40
--
molecule: CCOC(=O)c1c(C(=O)OCC)c2n(c1CC)C(c1ccc3c(c1)OCO3)c1[nH]c3ccccc3c1C2 (stereo not shown)
tested-target: human recombinant PDE5 (Homo sapiens)
reported-value: 8.00
--
molecule: CCc1cc(C(=O)NCc2ccccn2)c2n1C(c1ccc3c(c1)OCO3)c1[nH]c3ccccc3c1C2 (stereo not shown)
tested-target: human recombinant PDE5 (Homo sapiens)
reported-value: 7.30
--
molecule: CN1CCC(N(C)C(=O)c2ccn3c2Cc2c([nH]c4ccccc24)C3c2ccc3c(c2)OCO3)CC1 (stereo not shown)
tested-target: human recombinant PDE5 (Homo sapiens)
reported-value: 6.48
--
molecule: O=C(NCC1CCCO1)c1ccn2c1Cc1c([nH]c3ccccc13)C2c1ccc2c(c1)OCO2 (stereo not shown)
tested-target: human recombinant PDE5 (Homo sapiens)
reported-value: 8.24
--
molecule: O=C(NCc1ccccn1)c1ccn2c1Cc1c([nH]c3ccccc13)C2c1ccc2c(c1)OCO2 (stereo not shown)
tested-target: human recombinant PDE5 (Homo sapiens)
reported-value: 8.43
--
molecule: O=C(NCc1cccnc1)c1ccn2c1Cc1c([nH]c3ccccc13)C2c1ccc2c(c1)OCO2 (stereo not shown)
tested-target: human recombinant PDE5 (Homo sapiens)
reported-value: 8.23
--
molecule: NCCNC(=O)c1ccn2c1Cc1c([nH]c3ccccc13)C2c1ccc2c(c1)OCO2 (stereo not shown)
tested-target: human recombinant PDE5 (Homo sapiens)
reported-value: 8.00

query: Which pIC50 is reported with human recombinant PDE5 (Homo sapiens) for this entry: CCOC(=O)c1c(C(=O)OCC)c2n(c1C)[C@H](c1ccc3c(c1)OCO3)c1[nH]c3ccccc3c1C2 ?
result: 8.25

query: Which pIC50 is reported with human recombinant PDE5 (Homo sapiens) for this entry: O=C(NCCN1CCOCC1)c1ccn2c1Cc1c([nH]c3ccccc13)C2c1ccc2c(c1)OCO2 (stereo not shown) ?
result: 7.70

query: Which pIC50 is reported with human recombinant PDE5 (Homo sapiens) for this entry: O=C(O)c1ccn2c1Cc1c([nH]c3ccccc13)C2c1ccc2c(c1)OCO2 (stereo not shown) ?
result: 8.00

query: Which pIC50 is reported with human recombinant PDE5 (Homo sapiens) for this entry: O=C(NCCn1cccn1)c1ccn2c1Cc1c([nH]c3ccccc13)C2c1ccc2c(c1)OCO2 (stereo not shown) ?
result: 8.10

query: Which pIC50 is reported with human recombinant PDE5 (Homo sapiens) for this entry: N#Cc1ccn2c1Cc1c([nH]c3ccccc13)C2c1ccc2c(c1)OCO2 (stereo not shown) ?
result: 8.44
